Could you please report measured inhibition for the items listed next?
# tested-target: Protein arginine N-methyltransferase 1 (Homo sapiens)
# test-details: human PRMT1 activity-probe blockers – biochemical, fluorescence polarization, primary screen (AID 652257)
# condition-parameters: recombinant PRMT1, activity-based probe fluorescence polarization; at 2.79 µM; stronger effect = higher value
Among all 370,000 compounds or so, about 4,800 (1.3%) were called active. For the sample, actives were picked, then their nearest neighbours and some compounds at random.
Give bare numbers, in %.

CCCC[C@H](C(=O)N(CC)c1ccccc1)[C@@H](O)c1ccc2ccccc2c1    1.04
CCn1c2ccccc2c2cc(NC(=O)CSc3nnc(-c4ccccc4)n3-c3ccc(C)cc3)ccc21    -1.61
COC(=O)[C@H](C(C)C)N1CCc2nnn(Cc3ccc(C)cc3)c2-c2ccccc2S1(=O)=O    0.49
COC(=O)C1CN(CC(C)C)CCS(=O)(=O)N1Cc1ccc(C)cc1 (stereo not given)    6.76

Alright, here's another compound for you.
[ask] Read off the recorded inhibition for CCOc1ccc(N(C)Cc2cc(=O)oc3ccc(OC)cc23)cc1
[reply] -2.23
